These compounds were tested on BuChE (Homo sapiens); IC50 is the recorded read-out.
Sequence (P06276 29-602): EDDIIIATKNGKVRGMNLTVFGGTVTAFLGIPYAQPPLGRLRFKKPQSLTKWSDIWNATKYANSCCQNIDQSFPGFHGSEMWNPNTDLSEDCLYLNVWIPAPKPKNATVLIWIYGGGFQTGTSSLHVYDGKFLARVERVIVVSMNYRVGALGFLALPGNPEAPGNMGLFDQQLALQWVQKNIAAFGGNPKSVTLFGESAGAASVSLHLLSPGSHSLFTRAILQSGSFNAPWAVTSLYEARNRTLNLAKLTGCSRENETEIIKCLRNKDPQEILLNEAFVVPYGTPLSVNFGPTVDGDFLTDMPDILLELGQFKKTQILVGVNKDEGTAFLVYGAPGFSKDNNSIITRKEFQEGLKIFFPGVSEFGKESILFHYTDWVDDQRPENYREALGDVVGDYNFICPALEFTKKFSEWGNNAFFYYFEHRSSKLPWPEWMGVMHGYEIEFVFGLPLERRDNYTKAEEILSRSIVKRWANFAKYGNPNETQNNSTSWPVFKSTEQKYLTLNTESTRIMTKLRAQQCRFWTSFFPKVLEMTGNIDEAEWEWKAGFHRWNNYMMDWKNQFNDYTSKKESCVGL

These recorded examples may help you get a feel for the data.
O=[N+]([O-])c1ccc(C=NNC(=S)Nc2ccc3c(c2)OCO3)cc1: > 213 µM
S=C(NN=Cc1ccc(Cl)c(Cl)c1)Nc1ccc2c(c1)OCO2: > 213 µM
S=C(NN=Cc1ccc(-c2ccccc2)cc1)Nc1ccc2c(c1)OCO2: > 213 µM
S=C(NN=Cc1ccc(Br)cc1)Nc1ccc2c(c1)OCO2: > 212 µM
CN(C)c1ccc(C=NNC(=S)Nc2ccc3c(c2)OCO3)cc1: > 213 µM
N#Cc1ccc(C=NNC(=S)Nc2ccc3c(c2)OCO3)cc1: > 213 µM
Fc1ccc(C=NNC(=S)Nc2ccc3c(c2)OCO3)cc1: > 213 µM
S=C(NN=Cc1ccc(Cl)cc1)Nc1ccc2c(c1)OCO2: > 240 µM
S=C(NN=Cc1ccccc1)Nc1ccc2c(c1)OCO2: > 213 µM

Below: the item to evaluate.
[Q] // IC50 lookup, key: S=C(N/N=C/c1cc2c(cc1Br)OCO2)Nc1ccc2c(c1)OCO2
[A] > 189 µM

---

# assay-system: AChE (Electrophorus electricus, UniProt O42275)
# Sequence (O42275 24-633): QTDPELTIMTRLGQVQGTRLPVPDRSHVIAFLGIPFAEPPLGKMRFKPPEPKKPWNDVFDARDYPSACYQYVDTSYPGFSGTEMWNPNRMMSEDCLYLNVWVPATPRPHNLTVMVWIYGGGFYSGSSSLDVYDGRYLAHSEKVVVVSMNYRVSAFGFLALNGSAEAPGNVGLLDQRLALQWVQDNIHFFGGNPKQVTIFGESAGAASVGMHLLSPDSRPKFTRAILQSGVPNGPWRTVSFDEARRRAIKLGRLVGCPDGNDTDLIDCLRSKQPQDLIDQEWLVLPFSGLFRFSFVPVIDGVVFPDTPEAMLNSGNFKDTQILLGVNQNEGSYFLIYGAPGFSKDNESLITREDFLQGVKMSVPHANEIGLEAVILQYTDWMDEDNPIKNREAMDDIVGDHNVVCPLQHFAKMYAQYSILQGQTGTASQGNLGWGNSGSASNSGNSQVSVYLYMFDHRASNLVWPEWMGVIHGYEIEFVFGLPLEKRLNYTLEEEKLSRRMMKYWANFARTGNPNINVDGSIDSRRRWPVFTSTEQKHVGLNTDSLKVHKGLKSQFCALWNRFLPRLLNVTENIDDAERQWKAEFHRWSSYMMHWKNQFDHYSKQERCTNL
For each entry below, report its IC50 value.
Answers are plain numbers, in µM.

S=C(NN=Cc1ccc(Cl)c(Cl)c1)Nc1ccc2c(c1)OCO2 [Compound 9]: 205

Below: the item to evaluate.
[Q] # value lookup — system AChE (Electrophorus electricus, UniProt O42275), readout IC50, item S=C(N/N=C/c1cc2c(cc1Br)OCO2)Nc1ccc2c(c1)OCO2 [Compound 10]
[A] 108

---

# Tested on: C6 rat glioma cells
# assay-protocol: MTT cytotoxicity assay, C6
# Type: cell-based
# test-parameters: Rattus norvegicus, C6; MTT, 24 h; read-out: IC50 C6 Cell Line
For each entry below, report its pIC50 value.
Answers are plain numbers, as −log10 of the molar value.

These recorded examples may help you get a feel for the data.
O=[N+]([O-])c1ccc(C=NNC(=S)Nc2ccc3c(c2)OCO3)cc1: 4.63
S=C(NN=Cc1ccc(-c2ccccc2)cc1)Nc1ccc2c(c1)OCO2: 5.36
S=C(NN=Cc1ccc(Cl)c(Cl)c1)Nc1ccc2c(c1)OCO2: 4.60
N#Cc1ccc(C=NNC(=S)Nc2ccc3c(c2)OCO3)cc1: 4.31

Below: the item to evaluate.
[Q] # value lookup — system C6 rat glioma cells, readout pIC50, item S=C(N/N=C/c1cc2c(cc1Br)OCO2)Nc1ccc2c(c1)OCO2
[A] 4.91

---

For each entry below, report its Early and Late Apoptotic Cells % A549 Cells value.
# Tested on: A549 cells
# assay-protocol: Annexin V-PI flow cytometry of apoptosis, A549
# Format: cell-based
# test-parameters: IC50 dose, 24 h
Numbers only, in %.

S=C(NN=Cc1ccc(-c2ccccc2)cc1)Nc1ccc2c(c1)OCO2: 12.11
N.N.[Cl][Pt][Cl] [Cisplatin, reference compound]: 32.4
O=[N+]([O-])c1ccc(C=NNC(=S)Nc2ccc3c(c2)OCO3)cc1: 23.7

[Q] // Early and Late Apoptotic Cells % A549 Cells lookup, key: S=C(N/N=C/c1cc2c(cc1Br)OCO2)Nc1ccc2c(c1)OCO2
[A] 6.2

---

# System: A549 human lung adenocarcinoma cells
# assay-protocol: MTT cytotoxicity assay, A549
# Format: cell-based
# test-parameters: Homo sapiens, A549; MTT, 24 h; read-out: IC50 A549 Cell Line
measured-quantity: pIC50
Numbers only, as −log10 of the molar value.

S=C(NN=Cc1ccc(Cl)c(Cl)c1)Nc1ccc2c(c1)OCO2: 4.29
N#Cc1ccc(C=NNC(=S)Nc2ccc3c(c2)OCO3)cc1: 4.55
S=C(N/N=C/c1cc2c(cc1Br)OCO2)Nc1ccc2c(c1)OCO2: 4.53
O=[N+]([O-])c1ccc(C=NNC(=S)Nc2ccc3c(c2)OCO3)cc1: 4.62

Below: the item to evaluate.
[Q] // pIC50 lookup, key: S=C(NN=Cc1ccc(-c2ccccc2)cc1)Nc1ccc2c(c1)OCO2
[A] 4.97
